soluble fraction (log2) values by entry
- Experiment: soluble fraction after stress (log2 fold change); higher = more stays soluble; pooled small domains, quantitative proteomics
- Test conditions: stress: 50 degC

Construct sequence	soluble fraction (log2)
HMVIVMRKDADAASIEKVVSEVKSRGFMPHVSEGESRTLIGAIGPAPTEELREHFAGLAGVETVVRITK	0.113
HMWDEMKDQKLVEALLLLREDERKLIYQHVFEERTFDDISRINGLPPYKVKGIYYYAIRKIRKWMG	-1.51
HMKELAADFSRRIINARTSKGWSQADLGQRMAETINVIKSAESGKPPTDAVVKKFETVLGVILM	-0.641
HMSGDYRPLYPNLPESEKSEAFNLLAGSALPARLDDRTGDIMVPADRYYEARMILANAGFAD	0.0141
HMEVPMELPRQLRANRERLGLSQEDVAHAIYVSRQTMSSWERGKTYPDVQSLMLLSHLFGISIDELVKGDV	-1.55
HMATRLPFGFAKRFGVLVEGKDDQITVYHKDGLQTAVILEIQRYLARPFRFEAVTPEEFERRLGLAYQS	-0.808
HMGTQIKSPMPGTILDVRVNVGDTVKEGDILMILEAMKMENEILAPVSGKVAAIQVSKGTAVNSGDLLAVL	0.224
HMAADWTAIKLAYVNGGMSMRELAQRFHVGAAGLMKRAAKEGWEAERQQNSAKVSNAAQMLIN	0.33
HMTRQNTAVQQSDMAHHKASELTEGMSIVHSHFGRGTIISIETADDPRVTVDFSSEGRKTMLLRFAKFAIE	-0.118
HMKLIRIPFILTEGPDSQKITIDVDGDEEFRLGDVFEEDDKLWTVNQILVSGERKAKRSMAGEVMRISALR	-1.26
HMKKPRKTSRKSIENAAIFYLQRFSSSIENLRRVLMRRVYRSAQYHNTKPEEDAKIVDSIIYRLIETGVL	-0.0617
HMEKTKLPNLVDFTYRQAEALLQTHGLKVGKVERVPDVGQTVIKAKYKGKVISWGTELNKGEKIDLVIGKG	0.189
HMKNLTERQQRIIALISENPQTTRAEIAGAIGVATKTIERELTTLSNIVYYVGPKKGGHWEIIK	-0.865
HMSNATELVYDDGRKLLISYETLVGGYHPDLGWIRTAKTYSISTDKHIRNYFNNVTNPRVVGEDILETLKI	0.0667
HMHADIAATVVATMRQLGVLGLPRNYEIFYEALSGTNRELSLAVVSLSNRPTQDDLDRIGRRFFA	-0.785
HMKEPGFAPPVRALAAAPITVLAQVAGTNPGEIRARLRAAGYPVASDQQSVQSLVGGDLKAQIGVLNRILA	-0.00802
HMGAYITYEVKPGDTLWDIANKFPGVSADNIKTWNKVDELIKAGERLKINTQTITDYSPDKYPS	-0.221

====

soluble fraction (log2) values by entry
- Experiment: soluble fraction after stress (log2 fold change); higher = more stays soluble; pooled small domains, quantitative proteomics
- Test conditions: stress: 50 degC

Construct sequence	soluble fraction (log2)
HMSMSTVGERIKKKRKNLNFTQQELAAKLNISAQAVSKWENGVALPDLGLMPKLAQVLESTVDGLLGYQGA	0.0315
HMHPVTGRIGTVTAANGLNLRADSSEYANVVATLGYGVDVTVTGERINGFYPVRVGTLSGYVSADYVSFNS	-0.238
HMAPNKLQQQEVWTKALPLLQQMIMTIRQIDAAGGDSSPERELLEETAARFDETLDVERFLP	-0.308
HMAAGADEATTVPNVSGDTLNQAIKSLKAEGLGYMLSGAGARVRDQMPEPGAEMTKGSVVMLYMDGDAEVD	-0.0304
HMQKTIDWSQVDKEQYLSAMERSPVNDLEIKAILAKALTSDINNRELFMKGLDHSYYFEGYQLFKSE	-0.281
HMKIRKAVIPAAGLGTRVLPASKSIPKEMLPIVDKPVIQYIVEEAVKAGITEILIITGRGKGAIEDHFDRS	-0.122
HMVHSEDLQDHKYVSQLGEVFLKENPNYENIKKSWGDHMVVIKKFGRYPHRNKILNRKSTPEELEFLKG	-0.0131
HMDAMLSEQLREKRGELLIEVDAIAGNALRWATLSAEQQDAWAVYRQALLDVPQQAGFPNDVVWPINPN	-0.352
